assay: Serum pharmacokinetics after single intragastric dose; format: in vivo, mice; conditions: serum, as printed in text 'at 1 h'
property-label: AUClast

{"columns": ["compound", "value-reported"],
 "data": [
  ["COc1cc(/C=C/C(=O)CC(=O)/C=C/c2ccc(O)c(OC)c2)ccc1O [CUR, reference compound]", "0.44 µg/mL"],
  ["COc1cc(/C=C/C(=O)C(=Cc2ccc(F)c(F)c2)C(=O)/C=C/c2ccc(O)c(OC)c2)ccc1O", "1220 ng·h/mL"]
]}

----------
experiment: Pancreas tissue pharmacokinetics after single intragastric dose; format: in vivo, mice; details: female, ICR-SCID, mouse, po; pancreas, 250 mg/kg single intragastric
property-label: Cmax (ng/g)

{"columns": ["given-smiles", "property-label", "reading-unit", "value-reported"],
 "data": [
  ["COc1cc(/C=C/C(=O)C(=Cc2ccc(F)c(F)c2)C(=O)/C=C/c2ccc(O)c(OC)c2)ccc1O", "Cmax", "ng/g", 9350]
]}
